- Tested on: female gametes
- METHOD_SUMMARY: Female gamete inhibition assay
- Type: cell-based, Plasmodium falciparum
- Design: concentration or dose not given beside the values
- Method: Similarly, female gametes were activated as described previously.[31] Monoclonal anti-Pfs antibody conjugated to FITC was used to detect female gametes. Image acquisition was performed using a Zeiss Axio Lab.A1 epifluorescence microscope with a 100/1.4 numerical aperture (NA) oil immersion. Thirty images were captured per sample and analyzed manually.
# female gamete inhibition % per entry

{"MOLECULE": "CCCC1(NCCNC/C=C(\\C)CCC=C(C)C)C2CC3CC(C2)CC1C3 (centres unmarked)", "female gamete inhibition % [%]": 64.59}
{"MOLECULE": "c1ccc(CCNCCNC2C3CC4CC(C3)CC2C4)cc1 (centres unmarked)", "female gamete inhibition % [%]": 85.40}
{"MOLECULE": "CC(C)=CCC/C(C)=C/CNCCNC(C)(C)C1C2CC3CC(C2)CC1C3 (centres unmarked)", "female gamete inhibition % [%]": 54.00}
{"MOLECULE": "CC(C)=CCC/C(C)=C/CNCCNC1(c2ccccc2)C2CC3CC(C2)CC1C3 (centres unmarked)", "female gamete inhibition % [%]": 61.03}
{"MOLECULE": "CC(C)=CCC/C(C)=C/CNCCNC12CC3CC(CC(C3)C1)C2", "female gamete inhibition % [%]": 90.50}
